system: panel of 203 kinases (Homo sapiens)
Construct: purchased DiscoverX (KINOMEscan)
Sequence (Q8N5S9 whole entry): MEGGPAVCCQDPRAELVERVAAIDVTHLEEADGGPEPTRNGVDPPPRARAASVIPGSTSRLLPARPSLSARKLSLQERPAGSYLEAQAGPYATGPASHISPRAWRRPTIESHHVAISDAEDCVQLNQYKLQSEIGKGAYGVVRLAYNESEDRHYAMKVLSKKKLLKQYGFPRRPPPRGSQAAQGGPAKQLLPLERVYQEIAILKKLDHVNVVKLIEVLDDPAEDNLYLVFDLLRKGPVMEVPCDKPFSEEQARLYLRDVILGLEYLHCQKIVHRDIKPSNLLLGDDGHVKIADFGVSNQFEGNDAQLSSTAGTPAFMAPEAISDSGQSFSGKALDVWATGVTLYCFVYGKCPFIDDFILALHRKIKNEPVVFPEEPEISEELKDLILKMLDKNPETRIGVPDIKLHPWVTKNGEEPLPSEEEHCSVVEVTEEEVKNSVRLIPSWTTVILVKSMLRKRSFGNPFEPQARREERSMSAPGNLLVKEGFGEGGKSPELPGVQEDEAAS
procedure_summary: KINOMEscan competitive binding, whole panel
condition_info: 10 µM, n=1; kinase CAMKK1; read-out: Percent inhibition CAMKK1
endpoint_label: inhibition at 10 µM (%)
Your answer should be a plain number; it is taken to be in %.

Field: example entries. Status: answers known.
Short answer for COc1cc(Nc2nccc(-c3sc(N)nc3-c3cccc(NC(=O)c4c(F)cccc4F)c3)n2)cc(OC)c1OC : inhibition at 10 µM was 0

Short answer for Fc1cccc(COc2ccc(Nc3ncnc4c3CN(CCN3CCOCC3)CC4)cc2Cl)c1 : inhibition at 10 µM was 0

Continuing:
Short answer for CN1CCN(c2ccc(Nc3nccc(-c4cnn5ncccc45)n3)cc2C#N)CC1 : inhibition at 10 µM was 99.2

Short answer for Clc1ccc(Nc2ncc(-c3ccccc3)s2)cc1 : inhibition at 10 µM was 0

Short answer for Cc1ccc(O)cc1Nc1ccnc(Nc2cccc(C(N)=O)c2)n1 : inhibition at 10 µM was 0

Short answer for C[C@@H](Oc1cc(-c2cnc3ccccn23)sc1C(N)=O)c1ccccc1Cl : inhibition at 10 µM was 0

Short answer for c1ccc(COc2cccc(-c3ccnc4[nH]ccc34)c2)cc1 : inhibition at 10 µM was 0

Short answer for Cc1ccc(O)cc1N(C)c1ccnc(Nc2cccc(S(N)(=O)=O)c2)n1 : inhibition at 10 µM was 0

Short answer for Nc1ncc2c(-c3ccncc3)c[nH]c2n1 : inhibition at 10 µM was 0

Short answer for COc1ccc(Nc2nccc(-c3cnn4ncccc34)n2)cc1 : inhibition at 10 µM was 97.4
